# System: NCI-H23
# Assay Details: Cell Viability Assay (CellTiter-Glo)
# Type: cell-based
# Test Settings: 10 μM, 5 days
Measurement Label: Normalized viability % DMSO

Compound: CNC(=O)[C@@H]1C[C@@H](O)CN1C(=O)[C@@H](n1cc(Cn2cnc3cc(C)c(C)cc32)nn1)C(C)(C)C [Compound 914]
Result: 44.5 % DMSO

Compound: CC(C)(C)[C@@H](C(=O)N1C[C@H](O)C[C@H]1C(=O)NC1CC12CCc1cc(Br)ccc12)n1cc(C2CC2)nn1 (stereo partly drawn) [Compound 266]
Result: 37.6 % DMSO

Compound: CC(C)(NC(=O)[C@@H]1C[C@@H](O)CN1C(=O)[C@@H](n1cc(C2CC2)nn1)C(C)(C)C)C(=O)Nc1ccccc1 [Compound 480]
Result: 8.2 % DMSO
